Test system: Hepatitis C virus
Test method notes: Antiviral activity against HCV genotype-1 pseudoparticle expressing envelope protein E1 and E2 assessed as inhibition of pseudoparticles entry into human Huh-H1 cells after 2 days by luciferase reporter gene assay
Assay type: functional, organism-based, Hepacivirus hominis
Assay context: genotype 1, Huh-H1, 48 h
Metric name: EC50 (µM)

                                item_smiles  metric_name  reported
0  CN1CCN(CCNCc2cn(-c3ccc(F)cc3F)nc2-c2ccc(Cl)cc2)CC1         EC50       1.9
1  Cc1ccccc1-c1nn(-c2ccc(F)cc2F)cc1CNCCCN(C)C         EC50       6.1

====

Test method notes: Cytotoxicity against human HuH7 cells
Type: cell-based, Huh-7
Metric name: CC50 (µM)

>>> df
                                 item_smiles  metric_name  relational_operator  reported
 0  CN1CCN(CCNCc2cn(-c3ccc(F)cc3F)nc2-c2ccccc2Cl)CC1         CC50                    >        20
 1  Cc1ccccc1-c1nn(-c2ccc(F)cc2F)cc1CNCCCN(C)C         CC50                    >        20
 2  CCCN1CCC(CNCc2cn(-c3ccc(C(F)(F)F)cc3)nc2-c2ccc(Cl)cc2)CC1         CC50                    =       1.9
 3  CCCN1CCC(CNCc2cn(-c3ccc(C(F)(F)F)cc3)nc2-c2ccc(OC(F)(F)F)cc2)CC1         CC50                    =       2.2
 4  CN1CCN(CCNCc2cn(-c3ccc(F)cc3F)nc2Cc2ccccc2)CC1         CC50                    >        20
 5  CCCN1CCC(CNCc2cn(-c3ccc([N+](=O)[O-])cc3)nc2-c2ccc(C(F)(F)F)cc2)CC1         CC50                    =       2.3
 6  Cc1ccccc1-c1nn(-c2ccc(F)c(F)c2)cc1CNCCN1CCN(C)CC1         CC50                    >        20
 7  CCCN1CCC(CNCc2cn(-c3ccc([N+](=O)[O-])cc3)nc2-c2ccc(OC(F)(F)F)cc2)CC1         CC50                    =        18
 8  CCCN1CCC(CNCc2cn(-c3ccc(C(F)(F)F)cc3)nc2-c2ccc(C(F)(F)F)cc2)CC1         CC50                    =       1.2
 9  Cc1ccccc1-c1nn(Cc2ccc(F)cc2)cc1CNCCN1CCN(C)CC1         CC50                    >        20
10  CCOC(=O)Cn1cc(CNCCN2CCN(C)CC2)c(-c2ccccc2C)n1         CC50                    >        20
11  Cc1ccccc1-c1nn(-c2ccc(F)cc2F)cc1CNCCN1CCCCC1         CC50                    >        20
12  CN1CCN(CCNCc2cn(-c3ccc(C(F)(F)F)cc3)nc2-c2ccc(C(F)(F)F)cc2)CC1         CC50                    =       1.5
13  Cc1ccc(-n2cc(CNCCN3CCN(C)CC3)c(-c3ccccc3C)n2)c(C)c1         CC50                    >        20
14  CN1CCN(CCNCc2cn(-c3ccc(F)cc3F)nc2-c2cccc(N(C)C)c2)CC1         CC50                    >        20
15  Cc1cccc(-c2nn(-c3ccc(F)cc3F)cc2CNCCN2CCN(C)CC2)c1         CC50                    >        20
16  Cc1ccccc1-c1nn(-c2ccc(F)cc2F)cc1CNCc1ccncc1         CC50                    >        20
17  Cc1ccccc1-c1nn(-c2cccc(Cl)c2)cc1CNCCN1CCN(C)CC1         CC50                    =        16
18  Cc1ccccc1-c1nn(-c2ccc([N+](=O)[O-])cc2)cc1CNCCN1CCN(C)CC1         CC50                    >        20
19  CN1CCN(CCNCc2cn(-c3ccc(F)cc3F)nc2-c2ccc(Cl)cc2)CC1         CC50                    =        19
